TEST SYSTEM: T1, FX zymogen (UniProt P00742 41-179; P00742 183-488)
T1 chain 1: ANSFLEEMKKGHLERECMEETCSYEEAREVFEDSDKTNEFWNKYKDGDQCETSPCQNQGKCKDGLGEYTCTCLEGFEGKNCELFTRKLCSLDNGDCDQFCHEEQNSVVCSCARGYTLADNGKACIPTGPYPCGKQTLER
T1 chain 2: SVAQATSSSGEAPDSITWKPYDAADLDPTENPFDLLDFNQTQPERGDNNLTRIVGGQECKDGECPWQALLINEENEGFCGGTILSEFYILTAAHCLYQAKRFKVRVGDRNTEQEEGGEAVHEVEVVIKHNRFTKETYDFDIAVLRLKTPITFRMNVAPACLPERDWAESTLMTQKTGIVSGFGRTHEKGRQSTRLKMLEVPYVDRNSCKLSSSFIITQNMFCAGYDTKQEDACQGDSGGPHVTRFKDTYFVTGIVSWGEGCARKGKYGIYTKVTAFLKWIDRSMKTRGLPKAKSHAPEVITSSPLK
MEASUREMENT NOTES: BLI
pKd: −log10 of the molar value.

[
  {
    "BINDER": "BIIB-12-1305 (antibody, V domains shown) VH: QVQLVESGGGVVQPGRSLRLSCAASGFTFSSYGMHWVRQAPGKGLEWVAVISYDGSNKYYADSVKGRFTISRDNSKNTLYLQMNSLRAEDTAVYYCAKLGGRWSSDFQHWGQGTLVTVSS VL: EIVLTQSPATLSLSPGERATLSCRASQSVSSYLAWYQQKPGQAPRLLIYDASNRATGIPARFSGSGSGTDFTLTISSLEPEDFAVYYCQQSANWPPTFGGGTKVEIK",
    "pKd": 7.41
  },
  {
    "BINDER": "BIIB-12-1293 (antibody, V domains shown) VH: QVQLVQSGAEVKKPGASVKVSCKASGYTFTSYYMHWVRQAPGQGLEWMGIINPSGGSTSYAQKFQGRVTMTRDTSTSTVYMELSSLRSEDTAVYYCARGSGGKHRGLDVWGQGTMVTVSS VL: DIQMTQSPSSVSASVGDRVTITCRASQGISSWLAWYQQKPGKAPKLLIYAASSLQSGVPSRFSGSGSGTDFTLTISSLQPEDFATYYCQQANIFPFTFGGGTKVEIK",
    "pKd": 7.59
  },
  {
    "BINDER": "BIIB-12-1292 (antibody, V domains shown) VH: QVQLVQSGAEVKKPGASVKVSCKASGYTFTSYYIHWVRQAPGQGLEWMGIINPSGGSTSYAQKFQGRVTMTRDTSTSTVYMELSSLRSEDTAVYYCARDPGRRQSSGFDYWGQGTLVTVSS VL: EIVMTQSPATLSLSPGERATLSCRASQSVSSYLAWYQQKPGQAPRLLIYDSSNRATGIPARFSGSGSGTDFTLTISSLEPEDFAVYYCQQRLNFPFTFGGGTKVEIK",
    "pKd": 7.18
  },
  {
    "BINDER": "BIIB-12-921 (antibody, V domains shown) VH: QVQLVESGGGVVQPGRSLRLSCAASGFTFSSYGMHWVRQAPGKGLEWVAVISYDGSNKYYADSVKGRFTISRDNSKNTLYLQMNSLRAEDTAVYYCAKVGDRGTRAFDPWGQGTLVTVSS VL: DIQMTQSPSSVSASVGDRVTITCRASQGISRWLAWYQQKPGKAPKLLIYAASSLQSGVPSRFSGSGSGTDFTLTISSLQPEDFATYYCQQGNVFPLTFGGGTKVEIK",
    "pKd": 7.64
  },
  {
    "BINDER": "BIIB-12-1317 (antibody, V domains shown) VH: QVQLVESGGGVVQPGRSLRLSCAASGFTFSSYGMHWVRQAPGKGLEWVAVISYDGSNKYYADSVKGRFTISRDNSKNTLYLQMNSLRAEDTAVYYCARGVGGHDTRWGQGTLVTVSS VL: DIQMTQSPSSVSASVGDRVTITCRASQGISSWLAWYQQKPGKAPKLLIYAASSLQSGVPSRFSGSGSGTDFTLTISSLQPEDFATYYCQQRHSLPPTFGGGTKVEIK",
    "pKd": 7.57
  }
]

src = patent US20230192896A1
